Cited source: patent US7074742B2

system: Phytophthora infestans; type: in vivo; conditions: preventive spray on tomato seedlings; 100 = 100% disease control, 0 = no control; concentration not marked in table
// returns Criterion not met unless Test D disease control rating (potato and tomato late blight) is strictly below 30%, in which case Criterion met

Examples from the recorded data:
• O=C(NCc1ncc(C(F)(F)F)cc1Cl)c1ccc(C(F)(F)F)nc1-c1ccccc1 [Cmpd 24] = Criterion met
• CCOc1ncccc1C(=O)NCc1ncc(C(F)(F)F)cc1Cl [Cmpd 13] = Criterion met

Inquiry: Dear colleague, could you confirm whether Test D disease control rating (potato and tomato late blight) of O=C(NCc1ncc(C(F)(F)F)cc1Cl)c1cccnc1Sc1ccccc1 [Cmpd 16] falls below 30%? Thanks.
Reply text: Criterion not met

Inquiry: Dear colleague, could you confirm whether Test D disease control rating (potato and tomato late blight) of Cc1nc(C(F)(F)C(F)(F)F)ccc1C(=O)NCc1ncc(C(F)(F)F)cc1Cl [Cmpd 21] falls below 30%? Thanks.
Reply text: Criterion met

Inquiry: Dear colleague, could you confirm whether Test D disease control rating (potato and tomato late blight) of Cc1cc(Cl)c(C(=O)NCc2ncc(C(F)(F)F)cc2Cl)c(Cl)n1 [Compound 8] falls below 30%? Thanks.
Reply text: Criterion not met

Inquiry: Dear colleague, could you confirm whether Test D disease control rating (potato and tomato late blight) of Cc1ncccc1C(=O)NCc1ccc(Cl)nc1 [Cmpd 32] falls below 30%? Thanks.
Reply text: Criterion not met

Inquiry: Dear colleague, could you confirm whether Test D disease control rating (potato and tomato late blight) of O=C(NCc1ncc(C(F)(F)F)cc1Cl)c1cccnc1O [Cmpd 11] falls below 30%? Thanks.
Reply text: Criterion met

Inquiry: Dear colleague, could you confirm whether Test D disease control rating (potato and tomato late blight) of Cc1ccc(C(=O)NCc2ncc(C(F)(F)F)cc2Cl)c(Cl)n1 [Cmpd 14] falls below 30%? Thanks.
Reply text: Criterion not met

Inquiry: Dear colleague, could you confirm whether Test D disease control rating (potato and tomato late blight) of O=C(NCc1ncc(C(F)(F)F)cc1Cl)c1cccnc1Oc1ccccc1 [Cmpd 15] falls below 30%? Thanks.
Reply text: Criterion met

====

Overview of reported Test G disease control rating (grape downy mildew, curative) across a group of compounds:
system: Plasmopara viticola; experiment: TEST G: curative spray on inoculated grape seedlings, grape downy mildew, disease rating; format: in vivo; conditions: curative spray on inoculated grape seedlings; 100 ppm
Marks after values point to notes of the source that are not given here.

• O=C(NCc1ncc(C(F)(F)F)cc1Cl)c1c(Cl)cncc1Cl [Compound 35] = 100* %

Inquiry: Which Test G disease control rating (grape downy mildew, curative) is listed for Cc1cnc(Cl)c(C(=O)NCc2ncc(C(F)(F)F)cc2Cl)c1Cl [Compound 29] ?
Reply text: 100* %

Inquiry: Which Test G disease control rating (grape downy mildew, curative) is listed for CC(NC(=O)c1c(Cl)ccnc1Cl)c1ncc(C(F)(F)F)cc1Cl (racemic) [Compound 30] ?
Reply text: 100* %

Inquiry: Which Test G disease control rating (grape downy mildew, curative) is listed for O=C(NCc1ncc(C(F)(F)F)cc1Cl)c1c(Cl)ccnc1Cl [Compound 28] ?
Reply text: 37* %

====

test system: Phytophthora infestans; assay type: in vivo; details: preventive spray on tomato seedlings; 100 = 100% disease control, 0 = no control; concentration not marked in table
measure name: Test D disease control rating (potato and tomato late blight) (%)
Number only, in %; omit the unit.

Some solved cases for reference:
• Nc1ncccc1C(=O)NCc1ncc(C(F)(F)F)cc1Cl = 7
• Cc1ccc(C(=O)NCc2ncc(C(F)(F)F)cc2Cl)c(O)n1 = 7
• O=C(NCc1ncc(C(F)(F)F)cc1Cl)c1c(Cl)ccnc1Cl = 100
• Cc1nc(C(F)(F)F)ccc1C(=O)NCc1ncc(C(F)(F)F)cc1Cl = 25
• COCc1nc(C(F)(F)F)ccc1C(=O)NCc1ncc(C(F)(F)F)cc1Cl = 32

Inquiry: Which Test D disease control rating (potato and tomato late blight) is listed for COc1ncccc1C(=O)NCc1ncc(C(F)(F)F)cc1Cl ?
Reply text: 7

Inquiry: Which Test D disease control rating (potato and tomato late blight) is listed for O=C(NCc1ncc(C(F)(F)F)cc1Cl)c1cncc(C#Cc2ccccc2)c1 ?
Reply text: 25

Inquiry: Which Test D disease control rating (potato and tomato late blight) is listed for C[C@@H](NC(=O)c1c(Cl)ccnc1Cl)c1ncc(C(F)(F)F)cc1Cl ?
Reply text: 100

====

Overview of reported Test E disease control rating (grape downy mildew) across a group of molecules:
test system: Plasmopara viticola; test: TEST E: preventive spray on grape seedlings, grape downy mildew, disease rating; type: in vivo; details: 100 = 100% disease control, 0 = no control, concentration not marked in table
Number only, in %; omit the unit.

* COc1nc(C(F)(F)F)ccc1C(=O)NCc1ncc(C(F)(F)F)cc1Cl | 0

Inquiry: Which Test E disease control rating (grape downy mildew) is listed for Cc1nc(C(F)(F)F)ccc1C(=O)NCc1ncc(C(F)(F)F)cc1Cl ?
Reply text: 8

Inquiry: Which Test E disease control rating (grape downy mildew) is listed for O=C(NCc1ncc(C(F)(F)F)cc1Cl)c1cccnc1Oc1ccccc1 ?
Reply text: 8

Inquiry: Which Test E disease control rating (grape downy mildew) is listed for O=C(NCc1ncc(C(F)(F)F)cc1Cl)c1ccc(C(F)(F)F)nc1Br ?
Reply text: 0

Inquiry: Which Test E disease control rating (grape downy mildew) is listed for Cc1ccc(C(=O)NCc2ncc(C(F)(F)F)cc2Cl)c(O)n1 ?
Reply text: 8

Inquiry: Which Test E disease control rating (grape downy mildew) is listed for Cc1nc(C(F)(F)C(F)(F)F)ccc1C(=O)NCc1ncc(C(F)(F)F)cc1Cl ?
Reply text: 8

Inquiry: Which Test E disease control rating (grape downy mildew) is listed for CCOc1ncccc1C(=O)NCc1ncc(C(F)(F)F)cc1Cl ?
Reply text: 23

====

test system: Puccinia recondita; experiment: TEST B: preventive spray on wheat seedlings, wheat leaf rust, disease rating; assay type: in vivo; conditions: 100 = 100% disease control, 0 = no control, concentration not marked in table
measure name: Test B disease control rating (wheat leaf rust) (%)
Number only, in %; omit the unit.

Some solved cases for reference:
* Cc1ccc(C(=O)NCc2ncc(C(F)(F)F)cc2Cl)c(O)n1 | 9
* COc1ncccc1C(=O)NCc1ncc(C(F)(F)F)cc1Cl | 19

Inquiry: Missing value: Test B disease control rating (wheat leaf rust), Puccinia recondita, entry CCOc1ncccc1C(=O)NCc1ncc(C(F)(F)F)cc1Cl . Fill in?
Reply text: 9

Inquiry: Missing value: Test B disease control rating (wheat leaf rust), Puccinia recondita, entry O=C(NCc1ncc(C(F)(F)F)cc1Cl)c1cccnc1O . Fill in?
Reply text: 9

Inquiry: Missing value: Test B disease control rating (wheat leaf rust), Puccinia recondita, entry O=C(NCc1ncc(C(F)(F)F)cc1Cl)c1ccc(C(F)(F)F)nc1 . Fill in?
Reply text: 32

====

test system: Plasmopara viticola; experiment: TEST G: curative spray on inoculated grape seedlings, grape downy mildew, disease rating; type: in vivo; conditions: curative spray on inoculated grape seedlings; concentration not marked in table
measure name: Test G disease control rating (grape downy mildew, curative) (%)
Number only, in %; omit the unit.

• Cc1cc(Cl)c(C(=O)NCc2ncc(C(F)(F)F)cc2Cl)c(Cl)n1 = 96
• CC(NC(=O)c1c(Cl)ccnc1Cl)c1ncc(Br)cc1Cl (racemic) = 100
• CC(NC(=O)c1c(Cl)ccnc1Cl)c1ncc(Cl)cc1Cl (racemic) = 100
• Cc1cnc(C(=O)NCc2ncc(C(F)(F)F)cc2Cl)c(Cl)c1 = 99

Now examine the next entry.
Inquiry: Which Test G disease control rating (grape downy mildew, curative) is listed for O=C(NCc1ncc(C(F)(F)F)cc1Cl)c1cccnc1Cl ?
Reply text: 99

====

test system: Phytophthora infestans; assay type: in vivo; details: preventive spray on tomato seedlings; 100 = 100% disease control, 0 = no control; concentration not marked in table
measure name: Test D disease control rating (potato and tomato late blight) (%)
Number only, in %; omit the unit.

* Cc1nc(Cl)ccc1C(=O)NCc1ncc(C(F)(F)F)cc1Cl | 79
* Cc1cnc(C(=O)NCc2ncc(C(F)(F)F)cc2Cl)c(Cl)c1 | 100

Inquiry: Which Test D disease control rating (potato and tomato late blight) is listed for O=C(NCc1ncc(C(F)(F)F)cc1Cl)c1ccc(C(F)(F)F)nc1Br ?
Reply text: 32

Inquiry: Which Test D disease control rating (potato and tomato late blight) is listed for CC(NC(=O)c1c(Cl)ccnc1Cl)c1ncc(Br)cc1Cl (racemic) ?
Reply text: 100

====

system: Plasmopara viticola; assay: TEST E: preventive spray on grape seedlings, grape downy mildew, disease rating; type: in vivo; settings: 100 = 100% disease control, 0 = no control, concentration not marked in table
measure name: Test E disease control rating (grape downy mildew) (%)
Number only, in %; omit the unit.

Some solved cases for reference:
• O=C(NCc1ncc(C(F)(F)F)cc1Cl)c1ccc(C(F)(F)F)nc1-c1ccccc1 = 8
• CC(NC(=O)c1c(Cl)ccnc1Cl)c1ncc(C(F)(F)F)cc1Cl (racemic) = 100
• Nc1ncccc1C(=O)NCc1ncc(C(F)(F)F)cc1Cl = 0
• O=C(NCc1ncc(C(F)(F)F)cc1Cl)c1c(Cl)ccnc1Cl = 100
• COCc1nc(C(F)(F)F)ccc1C(=O)NCc1ncc(C(F)(F)F)cc1Cl = 8
• O=C(NCc1ncc(C(F)(F)F)cc1Cl)c1ccc(C(F)(F)F)nc1 = 0

Inquiry: Which Test E disease control rating (grape downy mildew) is listed for O=C(NCc1ncc(C(F)(F)F)cc1Cl)c1cccnc1Cl ?
Reply text: 98

Inquiry: Which Test E disease control rating (grape downy mildew) is listed for O=C(NCc1ncc(C(F)(F)F)cc1Cl)c1cccnc1Sc1ccccc1 ?
Reply text: 8

Inquiry: Which Test E disease control rating (grape downy mildew) is listed for O=C(NCc1ncc(C(F)(F)F)cc1Cl)c1cccnc1Nc1cccc(C(F)(F)F)c1 ?
Reply text: 16

Inquiry: Which Test E disease control rating (grape downy mildew) is listed for CC(NC(=O)c1c(Cl)ccnc1Cl)c1ncc(Br)cc1Cl (racemic) ?
Reply text: 100

Inquiry: Which Test E disease control rating (grape downy mildew) is listed for O=C(NCc1ncc(C(F)(F)F)cc1Cl)c1cncc(C#Cc2ccccc2)c1 ?
Reply text: 0

Inquiry: Which Test E disease control rating (grape downy mildew) is listed for Cc1cnc(Cl)c(C(=O)NCc2ncc(C(F)(F)F)cc2Cl)c1Cl ?
Reply text: 100
